Hey, just so you know, these numbers are from a melting point compilation (Tetko et al.; mined from patent text by program, amines drawn as free bases though some values may be those of a salt).

Each record here notes measured melting point.

These recorded examples may help you get a feel for the data.
CC=C1CCC2C3C(O)CC4CC(O)CCC4(C)C3CCC12C (stereo not given); 160 to 161 °C
O=C(C=Cc1ccccc1)NNC(=O)C=Cc1ccccc1; 267 to 268 °C
Cn1ccnc1C1=Cc2cc(OC(C)(C)C(=O)O)ccc2OC1; 187 to 190 °C
COc1c2ccccc2c(-c2cc(Br)c(O[C@H](Cc3ccccc3)C(=O)O)c(Br)c2)c2c1sc1ccccc12; 102 to 110 °C
NC[C@H]1C=Cc2cc(F)cc(-c3c(Cl)cccc3Cl)c2O1; 153 to 155 °C

Please report melting point for the following compound: CC1(C)Oc2cc3nonc3cc2C(N2CCCC2=O)C1O (stereo not given)
242 to 244 °C

Please report melting point for the following compound: CNC(=O)c1cccc(NC(=O)Cc2ccc(Br)cc2)c1
165 to 166 °C

Please report melting point for the following compound: COC(=O)[C@@H]1C[C@@H](OS(C)(=O)=O)CN1C(=O)OC(C)(C)C
86 to 87 °C

Please report melting point for the following compound: O=C(CCn1ccnc1)c1ccc(Cl)cc1Cl
105 to 109 °C

Please report melting point for the following compound: CC(=O)Cc1ccc(Oc2ccc(Cl)cc2)cc1
50 to 52 °C
